// data source = PubChem BioAssay (NCATS)

# Tested on: JEG-3
# experiment notes: Primary qHTS to identify gynecologic anti-cancer compounds using libraries of approved drugs and bioactive compounds (AID 1345084); note: % is set by controls: 0 for no effect and ±100 for the full control effect; nearly all actives have a fitted effect of over 55% in size
# run conditions: Gynecologic cancer cell panel viability, ATPlite luminescence, 48 h; series mostly up to 57.5 µM
Records with an inconclusive call do not appear. Active and inactive are the calls of the source. Calls come from the whole dose curve; as a rule, active = well fitted cell-killing curve with a large enough effect; inconclusive = small, poorly fitted or top-dose-only effect, or effect the other way; inactive = flat fitted curve, though single readings scatter.
readout type: activity change, negative = cytotoxicity

[[record]]
compound = "C/C=C/C=C/C(O)=C1\\C(=O)[C@]2(C)C3C(C(=O)CC/C=C/C)=C(O)C4(C)C1[C@]1(C)O[C@@]4(O)[C@@]3(C)O[C@@]12O"
observed_measurement = "inactive"

[[record]]
compound = "CC1(C=O)CC[C@]2(C(=O)O[C@@H]3O[C@H](CO)[C@@H](O)[C@H](O)[C@H]3O)CC[C@]3(C)C(=CCC4[C@@]5(C)C[C@H](O)[C@H](O[C@@H]6OC[C@@H](O)[C@H](O)[C@H]6O)[C@@](C)(CO)C5CC[C@]43C)C2C1 (stereo not given in full)"
observed_measurement = "12.1% [at 11.6 µM] (inactive)"

[[record]]
compound = "O=S(=O)(Nc1ccccn1)c1ccc(N=Cc2c(O)[nH]c3ccc4ncsc4c23)cc1"
observed_measurement = "3.65% [at 11.6 µM] (inactive)"

[[record]]
compound = "CC1=CC(=O)CC(C)(C)C1/C=C/C(C)O[C@@H]1O[C@H](CO)[C@@H](O)[C@H](O)[C@H]1O[C@@H]1OC[C@](O)(CO)[C@H]1O (stereo not given in full)"
observed_measurement = "inactive"


# input for lookup
Task: Form field: reported activity change, negative = cytotoxicity of C[C@@H]1O[C@@H](O[C@H]2[C@H](OC(=O)[C@]34CCC(C)(C)C[C@H]3C3=CCC5[C@@]6(C)C[C@H](O)[C@H](O[C@@H]7O[C@H](CO)[C@@H](O[C@H]8OC[C@](O)(CO)[C@H]8O)[C@H](O)[C@H]7O)[C@@](C)(CO)C6[C@H](O)C[C@@]5(C)[C@]3(C)C[C@H]4O)OC[C@H](O)[C@@H]2O)[C@H](O)[C@H](O)[C@H]1O[C@@H]1OC[C@@H](O)[C@H](O[C@@H]2OC[C@](O)(CO)[C@H]2O)[C@H]1O (stereo not given in full)
Result: 23.3% [at 6.55 µM] (inactive)
